B1: ZNF649 (parent)
chain: DECEKAYFYMSCLVKHKRIHSREK

- Variants of: B1
- experimentSummary: protein stability index of a GFP-peptide fusion (GPS, HEK-293T) (PSI 1-6); higher = more stable;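 further: lentivirally expressed fusions sorted by FACS into six bins by GFP to DsRed ratio, PSI derived from sequencing read proportions per bin multiplied by bin number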
- particulars: c terminus: a fixed tail appended
propertyName: protein stability index

Here's what some known entries look like.
H16V: 1.61
K17H: 2.05
R22E: 2.89
C3R: 2.33
M10G: 2.56

I am curious: what protein stability index value has been reported for `R22A` ?
2.54

Input `K5V`
1.81

Input `D1V`
1.57

Input `Y7P`
3.54

Input `C3S`
2.53
